The reported numbers originate from patent EP4725963A1.

Here the recorded cGMP production: EC50 is given for each entry.
- MEASURED TARGET: T1, human NPR1 full-length protein overexpressed on CHO-K1 cells (human, UniProt P16066 33-1061)
- T1 sequence: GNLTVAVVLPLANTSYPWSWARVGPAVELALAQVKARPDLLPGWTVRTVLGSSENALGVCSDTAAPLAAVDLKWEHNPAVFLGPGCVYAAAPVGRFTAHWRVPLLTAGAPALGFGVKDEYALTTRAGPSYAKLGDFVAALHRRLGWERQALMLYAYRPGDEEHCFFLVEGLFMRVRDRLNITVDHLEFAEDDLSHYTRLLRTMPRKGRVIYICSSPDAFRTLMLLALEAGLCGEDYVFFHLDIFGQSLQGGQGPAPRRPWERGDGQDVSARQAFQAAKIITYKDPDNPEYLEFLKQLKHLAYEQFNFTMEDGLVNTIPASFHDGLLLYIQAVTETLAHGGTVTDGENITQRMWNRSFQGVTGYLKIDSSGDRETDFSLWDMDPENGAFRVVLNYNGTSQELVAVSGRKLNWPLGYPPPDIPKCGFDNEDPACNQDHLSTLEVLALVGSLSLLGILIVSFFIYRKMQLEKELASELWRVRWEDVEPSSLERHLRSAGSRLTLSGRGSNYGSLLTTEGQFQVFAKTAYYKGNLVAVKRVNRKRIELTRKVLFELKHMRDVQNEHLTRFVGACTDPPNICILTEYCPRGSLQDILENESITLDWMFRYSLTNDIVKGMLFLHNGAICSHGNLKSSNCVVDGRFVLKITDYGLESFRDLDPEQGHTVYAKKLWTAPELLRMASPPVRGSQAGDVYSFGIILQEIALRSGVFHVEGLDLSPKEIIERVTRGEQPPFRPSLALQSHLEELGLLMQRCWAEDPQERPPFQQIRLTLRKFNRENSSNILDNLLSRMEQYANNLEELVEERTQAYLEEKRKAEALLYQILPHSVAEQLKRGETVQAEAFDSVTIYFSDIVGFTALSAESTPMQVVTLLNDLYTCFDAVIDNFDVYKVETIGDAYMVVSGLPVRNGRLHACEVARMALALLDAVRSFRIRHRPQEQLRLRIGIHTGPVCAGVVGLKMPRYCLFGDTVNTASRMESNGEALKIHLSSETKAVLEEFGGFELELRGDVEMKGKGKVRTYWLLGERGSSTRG
- PROTOCOL: cell-based or functional assay
State just the number; it will be interpreted in nM.

Check out these entries, answers already filled in.
# BINDER, RESULT TYPE, RECORDED VALUE
measured = [
    ("Hu102H5L6 (antibody, human IgG1, kappa, L234A L235A, V domains shown) VH: DVKLVESGEGLVKPGGSLRLSCAASGFTFSTYGMSWVRQAPGKRLEWVAYISRGGDYIYYADTVKGRFTISRDNAKNSLYLQMNSLRAEDTAVYYCTRDQTTVVVHWYFDVWGQGTTVTVSS VL: DIQLTQSPSSLSASVGDRVTITCSASSSINYMHWYQQKPGKSPKRWIYDTSKLASGVPSRFSGSGSGTDYTLTISSLQPEDFATYYCHQRNSYTFGGGTKVEIKR", "cGMP production: EC50", 43.6),
    ("Hu102H3L6 (antibody, human IgG1, kappa, L234A L235A, V domains shown) VH: DVKLVESGEGLVKPGGSLRLSCAASGFTFSTYAMSWVRQAPGKRLEWVAYISRGGDYIYYADTVKGRFTISRDNAKNSLYLQMNSLRAEDTAVYYCTRDQTTVVVHWYFDVWGQGTTVTVSS VL: DIQLTQSPSSLSASVGDRVTITCSASSSINYMHWYQQKPGKSPKRWIYDTSKLASGVPSRFSGSGSGTDYTLTISSLQPEDFATYYCHQRNSYTFGGGTKVEIKR", "cGMP production: EC50", 48.5),
    ("CHI-102 (antibody, human IgG1, kappa, V domains shown) VH: DVKLVESGEGLVKPGGSLKLSCAASGFTFSTYAMSWVRQTPEKRLEWVAYISRGGDYIYYADTVKGRFTISRDNARNTLYLQMSSLKSEDTAMYYCTRDQTTVVVHWYFDVWGTGTTVTVSS VL: QIVLTQSPAIMSASPGEKVTMTCSASSSINYMHWYQQKPGTSPKRWIYDTSKLASGVPARFSGSGSGTSYSLTISSMEAGDAATYYCHQRNSYTFGGGTKLEIKR", "cGMP production: EC50", 54.9),
]

Exam item: Please look at this binder and report its cGMP production: EC50: Hu102H4L6 (antibody, human IgG1, kappa, L234A L235A, V domains shown, Humanized, human IgG1 LALA/kappa; also called Hul02H4L6) VH: DVKLVESGEGLVKPGGSLRLSCAASGFTFSSYAMSWVRQAPGKRLEWVAYISRGGDYIYYADSVKGRFTISRDNAKNSLYLQMNSLRAEDSAVYYCTRDQTTVVVHWYFDVWGQGTTVTVSS VL: DIQLTQSPSSLSASVGDRVTITCSASSSINYMHWYQQKPGKSPKRWIYDTSKLASGVPSRFSGSGSGTDYTLTISSLQPEDFATYYCHQRNSYTFGGGTKVEIKR
Marked response: 45.9
